- Test system: trypsin
- method-description: Trypsin inhibition, EnzChek protease assay, mixtures of talc with divalent cation salts
- Type: biochemical
- run-parameters: Table 3; 0.1% (g/mL)
Everything with Salt alone, trypsin inhibition activities (%) lower than 20% is F; everything else, including exactly 20%, is T.

> print(dat)
                                   molecule  system.tested  assigned.label
1        [Cl-].[Cl-].[Zn+2] [Zinc chloride]        trypsin               T
2     [Ca+2].[Cl-].[Cl-] [Calcium chloride]        trypsin               F
3  CC(=O)[O-].CC(=O)[O-].O.O.O.O.[Mg+2] [Magnesium acetate tetrahydrate]        trypsin               F
4  CC(=O)[O-].CC(=O)[O-].O.[Ca+2] [Calcium acetate monohydrate]        trypsin               F
5  O.O.O.O.[Cl][Fe][Cl] [Iron (II) chloride tetrahydrate]        trypsin               T
6   [Cl-].[Cl-].[Mg+2] [Magnesium chloride]        trypsin               F
7  CC(=O)[O-].CC(=O)[O-].[Zn+2] [Zinc acetate dihydrate]        trypsin               T
